Can you tell me Remaining HNE activity for the items I'm about to list?
- target: HNE (human neutrophil elastase) (Homo sapiens, UniProt P08246)
- Construct: purchased Calbiochem
- Sequence (P08246 30-267): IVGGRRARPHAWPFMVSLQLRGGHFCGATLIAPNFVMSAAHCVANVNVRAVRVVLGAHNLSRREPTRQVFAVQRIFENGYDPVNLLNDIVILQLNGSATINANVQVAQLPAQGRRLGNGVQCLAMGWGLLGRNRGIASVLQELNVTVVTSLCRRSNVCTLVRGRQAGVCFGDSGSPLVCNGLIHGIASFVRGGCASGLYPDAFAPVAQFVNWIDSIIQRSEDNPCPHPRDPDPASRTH
- experimental.protocol: Persistence of HNE inhibition over extended period of time (16 h)
- Type: biochemical
- condition.set: monitored during 16 h in the presence of 10 μM inhibitor

Per the records, this compound ( CC(C)(C)C(=O)Oc1ccc(S(=O)(=O)Nc2ccccc2C(=O)NCC(=O)O)cc1 [Sivelestat, reference compound] ) has Remaining HNE activity equal to 3.7 ± 0.1%

Note to self: Remaining HNE activity recorded for CCOC(=O)c1nn(C)c2ccc(NS(=O)(=O)c3ccc(OC(=O)C(C)(C)C)cc3)cc12 was 9.1 ± 2.5%

# Remaining HNE activity of CCOC(=O)c1cn(S(=O)(=O)c2ccc(OC(=O)C(C)(C)C)cc2)c2ccccc12 = 5.5 ± 1.8%

The reported Remaining HNE activity of the compound CC(C)(C)C(=O)Oc1ccc(S(=O)(=O)n2nc(C#N)c3ccccc32)cc1 was 4.3 ± 0.3%

Lookup result for CC(C)(C)C(=O)Oc1ccc(S(=O)(=O)n2nc(C#N)c3cc([N+](=O)[O-])ccc32)cc1 ; measured Remaining HNE activity: 41.7 ± 3.2%

Record Remaining HNE activity for all entries; do not skip any.
1. Cc1noc(-c2cn(S(=O)(=O)c3ccc(OC(=O)C(C)(C)C)cc3)c3ncccc23)n1
2. CC(C)(C)C(=O)Oc1ccc(S(=O)(=O)n2nc(C3CC3)c(=O)c3ccccc32)cc1
3. CC(C)(C)C(=O)Oc1ccc(S(=O)(=O)n2cc(C#N)c3ccccc32)cc1

# output
1. 26.2 ± 3.4%
2. 9.2 ± 2.5%
3. 2.0 ± 0.4%
